- System: U2OS
- run_description: Incucyte cell viability with U2OS; also: unitless GR value; below 1 slowed growth and below 0 cell loss
- Format: toxicity, cell-based
- study_conditions: human, 24 h, 10 µM, compound concentration 10 uM, replicate number 1, timepoint 24 hours
Listing of recorded Growth Rate by entry.
Form: value (number only, do not type unit).

Study these solved cases before continuing.
compound	target_of_assay	Growth Rate
c1ccc(NCc2ccc(CNc3ccccn3)cc2)nc1	U2OS	0.93
Br.Oc1cc2c(cc1O)C(c1ccccc1)CNCC2 (configuration not stated)	U2OS	0.98
C[C@]1(O)CC[C@H]2[C@@H]3CCC4=CC(=O)CCC4=C3C=C[C@@]21C	U2OS	0.76
O=c1ccn([C@@H]2O[C@H](COP(=O)([O-])OP(=O)([O-])OP(=O)([O-])OP(=O)([O-])OC[C@H]3O[C@@H](n4ccc(=O)[nH]c4=O)[C@H](O)[C@@H]3O)[C@@H](O)[C@H]2O)c(=O)[nH]1.[Na+].[Na+].[Na+].[Na+] [DIQUAFOSOL TETRASODIUM]	U2OS	0.93
CN(C)[C@H]1CN(C2CCc3cccc(F)c32)C[C@@H]1c1ccc(N2CCN(S(C)(=O)=O)CC2)cc1 (some centres not stated)	U2OS	0.97

Next item in the queue.
## Input Look at this compound and give its reported Growth Rate. OCCN1CCN(CCCN2c3ccccc3Sc3ccc(Cl)cc32)CC1
## Output 1
